assay: clinical; details: human, plasma, oral, 1200 mg, Tmax Mean, Part 1 Cohort 4, 1200 mg QD, Cycle 1 Day 14
Property Label: Tmax

Item Smiles	Result
CCCCCCCCCCCCCCCC(=O)NCCCC[C@@H](N)C(=O)NCCCNCCCCNCCCN	6 h

###

experiment: MALDI-FTICR imaging quantitation of DFMO in whole-body sections of Th-MYCN mice; assay type: in vivo, mouse; conditions: male, Th-MYCN, mouse, brown fat, oral, 40 mg/day, DFMO in brown fat

Compound	concentration at 96 h
NCCCC(N)(C(=O)O)C(F)F (stereo not shown)	~25000 ng/g

###

Assay: clinical
Conditions: human, plasma, oral, AUC0-t Mean, Part 1 Cohort 2, 160 mg QD, Cycle 1 Day 28, +DFMO 500 mg/day
Experimental: Clinical Trial Outline. […] All solid tumor types are eligible for the trial. […] An expansion cohort was included at the RP2D level to confirm safety and tolerability of the combination. […] Plasma samples were analyzed for AMXT 1501 concentration via a LC/MS^2 procedure (MI-0028-DB-AB; Agilux Laboratories, Worcester, Massachusetts), and the resulting concentration versus time data were used to estimate individual PK parameters using noncompartmental analysis (NCA).

Item Smiles	AUC(0-t)
CCCCCCCCCCCCCCCC(=O)NCCCC[C@@H](N)C(=O)NCCCNCCCCNCCCN	150 ng·h/mL

###

Test: clinical
Conditions: human, plasma, oral, 80 mg, Cmax Mean, Part 1 Cohort 1, 80 mg QD, Cycle 1 Day 14
Experimental: Clinical Trial Outline. […] All solid tumor types are eligible for the trial. […] An expansion cohort was included at the RP2D level to confirm safety and tolerability of the combination. […] Plasma samples were analyzed for AMXT 1501 concentration via a LC/MS^2 procedure (MI-0028-DB-AB; Agilux Laboratories, Worcester, Massachusetts), and the resulting concentration versus time data were used to estimate individual PK parameters using noncompartmental analysis (NCA).

Compound	Cmax
CCCCCCCCCCCCCCCC(=O)NCCCC[C@@H](N)C(=O)NCCCNCCCCNCCCN [AMXT 1501, D-lys(palmitoyl)-spermine]	26.2 ng/mL

###

test: in vivo; settings: BALB/c, mouse, tumor and plasma, sc, 2.5 mg/kg
Property Label: Kp

Item Smiles	Property Label	Result
CCCCCCCCCCCCCCCC(=O)NCCCC[C@@H](N)C(=O)NCCCNCCCCNCCCN	Kp	15.5

###

test: MALDI-FTICR imaging quantitation of DFMO in whole-body sections of Th-MYCN mice; type: in vivo, mouse; conditions: male, Th-MYCN, mouse, kidney, oral, 1 % in drinking water, DFMO in Kidney, DFMO alone 1% in drinking water; mice 049, 082; 96 h
Property Label: concentration at 96 h

Molecule	Result
NCCCC(N)(C(=O)O)C(F)F (stereo not shown) [DFMO, difluoromethylornithine]	77600 ng/g

###

Experiment: clinical
Conditions: human, plasma, oral, Tmax Mean, Part 1 Cohort 1, 80 mg QD, Cycle 1 Day 28, +DFMO 500 mg/day
Method: Clinical Trial Outline. […] All solid tumor types are eligible for the trial. […] An expansion cohort was included at the RP2D level to confirm safety and tolerability of the combination. […] Plasma samples were analyzed for AMXT 1501 concentration via a LC/MS^2 procedure (MI-0028-DB-AB; Agilux Laboratories, Worcester, Massachusetts), and the resulting concentration versus time data were used to estimate individual PK parameters using noncompartmental analysis (NCA).

Item Smiles	Tmax [h]
CCCCCCCCCCCCCCCC(=O)NCCCC[C@@H](N)C(=O)NCCCNCCCCNCCCN	11.3
